measurement.notes: RP-TLC lipophilicity on RP-18F254 plates (Soczewiński-Wachtmeister's and Ościk's equations)
Type: physicochemical
run.parameters: φ0 = RMWS/S (Equation 6), acetone-water mobile phase

{"columns": ["compound", "φ0(a)"],
 "data": [
  ["CC(C(=O)O)c1ccc2c(c1)[nH]c1ccc(Cl)cc12 (centres unmarked)", 0.754],
  ["COC(=O)C1=C(C#N)NC(C)=C(C(=O)OC(C)C)C1c1cccc([N+](=O)[O-])c1 (centres unmarked)", 0.764],
  ["CCOC(=O)C1=C(C)NC(C)=C(C(=O)OC)C1c1cccc(Cl)c1Cl (centres unmarked)", 0.775],
  ["Cc1cccc(Nc2ccccc2C(=O)O)c1C", 0.789],
  ["CCS(=O)(=O)CCn1c([N+](=O)[O-])cnc1C", 0.463]
]}

* * *

measurement.notes: RP-TLC lipophilicity on RP-18F254 plates (Soczewiński-Wachtmeister's and Ościk's equations)
Format: physicochemical
run.parameters: Ościk's equation, methanol-water mobile phase, silica gel RP-18F254

{"columns": ["compound", "RMWO(m)"],
 "data": [
  ["Cc1ncc([N+](=O)[O-])n1CC(O)CCl (stereo not drawn) [Ornidazole, ornidazole]", 1.92],
  ["CC(C(=O)O)c1ccc2c(c1)[nH]c1ccc(Cl)cc12 (stereo not drawn) [Carprofen, carprofen]", 2.77],
  ["Cc1ncc([N+](=O)[O-])n1CC(C)O (stereo not drawn) [Secnidazole, secnidazole]", 1.72]
]}

* * *

measurement.notes: RP-TLC lipophilicity on RP-18F254 plates (Soczewiński-Wachtmeister's and Ościk's equations)
Assay type: physicochemical
run.parameters: Ościk's equation, methanol-water mobile phase, silica gel RP-18F254
Lab note: compare RMWO(m) against 4. Equal or greater, write 1. Smaller, write 0.

{"columns": ["molecule", "label"],
 "data": [
  ["COC(=O)C1=C(C)NC(C)=C(C(=O)OC(C)C)C1c1cccc2nonc12 (centres unmarked)", 1],
  ["CCOC(=O)C1=C(C)NC(C)=C(C(=O)OCC)C1c1ccccc1/C=C/C(=O)OC(C)(C)C", 1],
  ["Cc1ncc([N+](=O)[O-])n1CCO", 0],
  ["CCS(=O)(=O)CCn1c([N+](=O)[O-])cnc1C", 0],
  ["CC(C(=O)O)c1ccc(-c2ccccc2)c(F)c1 (centres unmarked)", 0],
  ["COC(=O)C1=C(C#N)NC(C)=C(C(=O)OC(C)C)C1c1cccc([N+](=O)[O-])c1 (centres unmarked)", 1],
  ["CC(C(=O)O)c1cccc(C(=O)c2ccccc2)c1 (centres unmarked)", 0]
]}

* * *

measurement.notes: RP-TLC lipophilicity on RP-18F254 plates (Soczewiński-Wachtmeister's and Ościk's equations)
Assay type: physicochemical
run.parameters: Ościk's equation, acetone-water mobile phase, silica gel RP-18F254

{"columns": ["molecule", "RMWO(a)"],
 "data": [
  ["Cc1ncc([N+](=O)[O-])n1CC(C)O (centres unmarked) [Secnidazole, secnidazole]", 1.21],
  ["CCOC(=O)C1=C(C)NC(C)=C(C(=O)OCC)C1c1ccccc1/C=C/C(=O)OC(C)(C)C [Lacidipine, lacidipine]", 6.63],
  ["CCOC(=O)C1=C(C)NC(C)=C(C(=O)OC)C1c1cccc(Cl)c1Cl (centres unmarked) [Felodipine, felodipine]", 5.57],
  ["CCS(=O)(=O)CCn1c([N+](=O)[O-])cnc1C [Tinidazole, tinidazole]", 1.11],
  ["Cc1ncc([N+](=O)[O-])n1CC(O)CCl (centres unmarked) [Ornidazole, ornidazole]", 1.42],
  ["COC(=O)C1=C(C#N)NC(C)=C(C(=O)OC(C)C)C1c1cccc([N+](=O)[O-])c1 (centres unmarked) [Nilvadipine, nilvadipine]", 6.28],
  ["Cc1ncc([N+](=O)[O-])n1CCO [Metronidazole, metronidazole]", 0.94],
  ["COC(=O)C1=C(C)NC(C)=C(C(=O)OC(C)C)C1c1cccc2nonc12 (centres unmarked) [Isradipine, isradipine]", 5.67]
]}

* * *

measurement.notes: RP-TLC lipophilicity on RP-18F254 plates (Soczewiński-Wachtmeister's and Ościk's equations)
Assay type: physicochemical
run.parameters: φ0 = RMWS/S (Equation 6), methanol-water mobile phase

{"columns": ["compound", "φ0(m)"],
 "data": [
  ["CC(C(=O)O)c1ccc2c(c1)[nH]c1ccc(Cl)cc12 (centres unmarked)", 0.820],
  ["COC(=O)C1=C(C)NC(C)=C(C(=O)OC(C)C)C1c1cccc2nonc12 (centres unmarked)", 0.837],
  ["CCS(=O)(=O)CCn1c([N+](=O)[O-])cnc1C", 0.612],
  ["COc1ccc2cc(CCC(C)=O)ccc2c1", 0.903],
  ["CC(C(=O)O)c1ccc(-c2ccccc2)c(F)c1 (centres unmarked)", 0.771]
]}

* * *

measurement.notes: RP-TLC lipophilicity on RP-18F254 plates (Soczewiński-Wachtmeister's and Ościk's equations)
Type: physicochemical
run.parameters: φ0 = RMWS/S (Equation 6), acetone-water mobile phase

{"columns": ["molecule", "φ0(a)"],
 "data": [
  ["CC(C(=O)O)c1cccc(C(=O)c2ccccc2)c1 (stereo not drawn) [Ketoprofen, ketoprofen]", 0.640],
  ["CC(C(=O)O)c1ccc(-c2ccccc2)c(F)c1 (stereo not drawn) [Flurbiprofen, flurbiprofen]", 0.930],
  ["COc1ccc2c(c1)c(CC(=O)O)c(C)n2C(=O)c1ccc(Cl)cc1 [Indomethacin, indomethacin]", 0.747]
]}

* * *

RMWS(a) values, listed per item
measurement.notes: RP-TLC lipophilicity on RP-18F254 plates (Soczewiński-Wachtmeister's and Ościk's equations)
Assay type: physicochemical
run.parameters: Soczewiński-Wachtmeister's equation, acetone-water mobile phase, silica gel RP-18F254
outcome.measure: RMWS(a)

{"columns": ["compound", "outcome.measure", "readout.number"],
 "data": [
  ["Cc1ncc([N+](=O)[O-])n1CC(O)CCl (stereo not drawn) [Ornidazole, ornidazole]", "RMWS(a)", 1.22],
  ["COc1ccc2cc(CCC(C)=O)ccc2c1 [Nabumetone, nabumetone]", "RMWS(a)", 3.08],
  ["CCCCC1C(=O)N(c2ccccc2)N(c2ccccc2)C1=O [Phenylbutazone, phenylbutazone]", "RMWS(a)", 1.72]
]}
